B1: RBBP5 (parent)
chain: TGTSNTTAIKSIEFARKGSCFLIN

Variants of: B1
assay_procedure: protein stability index of a GFP-peptide fusion (GPS, HEK-293T) (PSI 1-6); higher = more stable;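 also: lentivirally expressed fusions sorted by FACS into six bins by GFP to DsRed ratio, PSI derived from sequencing read proportions per bin multiplied by bin number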
measurement_parameters: c terminus: a fixed tail appended
Reported protein stability index is given for each of the following variants.

GET /value?item= S11G &field=protein stability index returns 2.12

Entry C20H — recorded protein stability index = 2.16

Entry S4W , protein stability index reported as 1.83

T3P yielded protein stability index of 2.46

Record K10C , field protein stability index: 2.38

get_value(item= L22W , readout=protein stability index) returns 1.71

Record summary for A15L : reported protein stability index = 2.58

The recorded protein stability index for K10D is 2.08

Briefly, protein stability index measured for T1Y : 1.79

Notebook: T1V , protein stability index read as 1.87

In plain terms, A15S has a documented protein stability index of 2.09

# protein stability index (variant: N5F ) is 2.2

Lookup result for C20D ; measured protein stability index: 2.6

The variant identified as C20Q registered its protein stability index at 2.51

Just so you know, measured protein stability index for E13R came out at 1.72

Lab book: protein stability index of F21L noted as 2.07

Per the record, I23E has protein stability index of 3.38

Record G2V , field protein stability index: 2.44
